Test: chemical genetic growth profiling, strain panel (AID 1159580);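 further: tested at 20 µM; growth read once vehicle control cultures reached saturation at 30 °C; 1 = growth at the plate median or of vehicle wells; lower values mean less growth of the strain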
Details: S. cerevisiae deletion strains, growth OD, locus YLR039C, strain RIC1, active compounds read low
Among all 5,500 compounds or so, about 2,000 (36%) were called active. About 18% were inconclusive and are not listed. Some of the results follow.
measured_attribute: normalized growth
Numbers only.

Use these answered entries as a reference point.
>>> print(df.to_string())
                                   compound  experimental_result
0  CCOC(=O)/C(C#N)=C/N=C(N/N=C\c1c(Cl)cccc1Cl)SC                0.771
1  CC1(C)S[C@@H]2C(N3C(=O)[C@@H](c4ccccc4)NC3(C)C)C(=O)N2[C@H]1C(=O)O (stereo not given in full)                 1.03

For each of the items listed, what is its normalized growth?
1. CC(=O)[C@@]1(O)CCC2C3C=C(Cl)C4=CC(=O)[C@@H]5CC5[C@]4(C)C3CC[C@@]21C (stereo not given in full)
2. COc1ccccc1NC(=S)NCCC(=O)O
3. NC(=O)c1ccccc1O

-- reply
[0.984, 1.03, 1]

For each of the items listed, what is its normalized growth?
1. O=C(/C=C(\O)c1ccccc1)c1ccccc1O
2. CC1(C)O[C@@H]2CC3C4C[C@H](F)C5=CC(=O)CC[C@]5(C)C4[C@@H](O)C[C@]3(C)[C@]2(C(=O)CO)O1 (stereo not given in full)
3. O=C(O)c1ccccc1O
4. COC(=O)NC(=S)Nc1ccccc1NC(=S)NC(=O)OC
5. COC(=O)C[C@H]1C(C)(C)[C@@H](O)[C@@H]2CC3=C4CC(O)O[C@@H](c5ccoc5)[C@]4(C)CCC3[C@@]1(C)C2=O (stereo not given in full)

-- reply
0.137
1.03
0.978
1.02
0.981

---

Assay: chemical genetic growth profiling, strain panel (AID 1159580);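 further: tested at 20 µM; growth read once vehicle control cultures reached saturation at 30 °C; 1 = growth at the plate median or of vehicle wells; lower values mean less growth of the strain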
Details: S. cerevisiae deletion strains, growth OD, locus YDR388W, active compounds read low
The campaign covered roughly 5,500 compounds. About 2,000 (36%) were called active. Inconclusive results (about 18%) are left out. The list shows a part of the results.
Strictly below 1 in normalized growth: Y. Otherwise: N.

-- ask Given the entry `CC[C@@]1(O)C(=O)OCc2c1cc1n(c2=O)Cc2cc3ccccc3nc2-1` , would its reported normalized growth be below 1?
-- reply Y

-- ask Same thing, different molecule: `COc1nc(NC(C)C)nc(NC(C)C)n1`
-- reply N

-- ask Same thing, different molecule: CCCCCC(O)C1C(=O)OC(C)C(O)/C=C/C=C/C=C/C=C/C=C(\C)C(O)CC(O)CC(O)CC(O)CC(O)CC(O)CC1O (configuration not stated)
-- reply N

---

Experiment: chemical genetic growth profiling, strain panel (AID 1159580);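 further: tested at 20 µM; growth read once vehicle control cultures reached saturation at 30 °C; 1 = growth at the plate median or of vehicle wells; lower values mean less growth of the strain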
Settings: S. cerevisiae deletion strains, growth OD, locus YLR370C, strain arc18, active compounds read low
In all, about 5,500 compounds went through this assay and about 2,000 (36%) were called active. Inconclusive results (about 18%) are left out. The list shows a part of the results.
Task for the reader: assign each of the following compounds its reported normalized growth.
Answers are plain numbers.

Use these answered entries as a reference point.
compound	normalized growth
COC1C(O)C(O[C@H]2CC[C@]3(C=O)C4C(CC[C@]3(O)C2)[C@@]2(O)CC[C@H](C3=CC(=O)OC3)[C@@]2(C)C[C@H]4OC(C)=O)OC(C)C1OC(C)=O (some centres not stated)	0.98
O=C(O)CCc1nc(-c2ccccc2)c(-c2ccccc2)o1	0.961
OC1(c2ccc(Cl)c(C(F)(F)F)c2)CCN(CCCC(c2ccc(F)cc2)c2ccc(F)cc2)CC1	0.0708
CC(C)c1cccc(O)c(=O)c1	0.0652
C[C@@H]1O[C@@H](O[C@H]2CC[C@]3(C=O)C4CC[C@]5(C)[C@@H](C6=CC(=O)OC6)CC[C@]5(O)C4CC[C@]3(O)C2)[C@H](O)[C@H](O)[C@H]1O (some centres not stated)	1.01

For each of the items listed, what is its normalized growth?
1. CC(C)=CC1C(CO)C1(C)C (configuration not stated)
2. CC(=O)Oc1ccccc1C(=O)Oc1ccccc1C(=O)O
3. C[C@]12CCC3C(CC[C@]4(O)C[C@@H](O)CC[C@]34C=O)[C@@]1(O)CCC2C1=CC(=O)OC1 (some centres not stated)
4. O=C(Oc1ccccc1C(=O)O)c1ccccc1O
5. CC1=CC(=O)C(C(C)C)=CC1=O

-- reply
1. 1.01
2. 1
3. 0.999
4. 0.986
5. 1.01
